Where these numbers come from: PubChem BioAssay (NCI)

Test system: UACC-257 melanoma
protocol.details: NCI-60 one-dose screen, 48 h
test.parameters: 10 µM unless noted
The panel holds about 83,000 compounds, 20% with a hit somewhere; the sample as a whole holds those more often. Activity calls are given as the source filed them. Rule for the calls: active = growth percent below 10; inactive = the rest.
Please reply with one of these outcomes: YES = active, NO = inactive

Please review the following examples before continuing.
>>> df
                                   compound  qualitative_label
0  Ic1ccc2[nH]cc(SSc3c[nH]c4ccc(I)cc34)c2c1                 NO
1  CC(C)C1=NOC(=O)C1=Cc1cn(-c2ccccc2)nc1-c1ccccc1                 NO
2     O=c1c2c3c(sc2n2cnnc2n1Cc1ccccc1)CCCC3                 NO

Hi, do you know how CCCCCn1sc(=O)n(Cc2ccc(CNC(=O)OCc3ccc4cccc(O)c4n3)cc2)c1=O came out in this test?
YES

Outcome? O=C(C[n+]1ccn(CC(OCc2ccc(Cl)cc2Cl)c2ccc(Cl)cc2Cl)c1)c1ccc(F)cc1 (centres undefined)
YES

# lookup: test call for CCCn1ccnc1C(O)c1ccc(OCc2ccccc2)c(OC)c1 (centres undefined)
NO

Returns: the outcome recorded for C=C(C)[C@@H]1CC[C@]2(C(=O)O)CC[C@]3(C)[C@H](CC[C@@H]4[C@@]5(C)C/C(=C/c6ccco6)C(=O)C(C)(C)[C@@H]5CC[C@]43C)[C@@H]12 in this assay.
YES

Tell me the recorded outcome of this test for O=C(NCCCCCCCNC(=O)OCc1ccc2c(Cl)cc(Cl)c(O)c2n1)OCc1ccc2c(Cl)cc(Cl)c(O)c2n1 .
YES

So what was the verdict on COc1ncc(-c2ccc3nc(N)n(-c4ccccc4C(F)(F)F)c(=O)c3c2)cc1S(=O)(=O)Nc1ccc(F)cc1F in this test?
NO

----------
Test system: EKVX NSCLC
protocol.details: NCI-60 one-dose screen, 48 h (100 = growth as untreated, 0 = no growth, -100 = all killed)
test.parameters: 10 µM unless noted
About 83,000 compounds went through this panel and 20% of them were active in at least one assay; those are over-represented in the sample as a whole. The source made the active and inactive calls. Rule for the calls: active = growth percent below 10; inactive = the rest.
reported.endpoint: growth

Sample answers from the record:
                                   molecule  reported_endpoint  experimental_result
0  CC(C)(C)c1cc(C(=O)Nc2ccccc2C(=O)NCCN)cc(C(C)(C)C)c1             growth     17.8% (inactive)
1  CC1Cc2c(Cl)ncnc2N(C)c2ccc(Cl)cc21 (stereo unspecified)             growth     14.2% (inactive)
2  C#CCOc1ccc(C2=NN(CC3CC3)C3N=C(Cl)c4ncn(CC5CC5)c4N23)cc1OCC#C (stereo unspecified)             growth     80.1% (inactive)
3      CCCOc1ccc(-c2nc(-c3ccc(N)cc3)cs2)cc1             growth     95.6% (inactive)
4  COc1ccc(NC(=S)NNc2ccc(-c3ccc(OC)c(OC)c3)nn2)cc1             growth      104% (inactive)

Which measured growth value corresponds to O=C(CCN1CCCCC1)c1ccc(Cl)cc1 ?
101% (inactive)

----------
Tested on: T-47D breast
protocol.details: NCI-60 one-dose screen, 48 h
test.parameters: 10 µM unless noted
Method: Growth inhibition of the T-47D human tumor cell line is measured as a screen for anti-cancer activity. Cells are grown in 96 well plates and exposed to the test compound for 48 hours. Compounds are tested at a single concentration, which is 10^-5 M for most compounds. The reported endpoint is percent growth (GI% or GIPRCNT), where numbers from 0 - 100% represent growth inhibition, and numbers from -100% - 0 represent cell death. For example, a value of 40 represents 60% growth inhibition. […]
This is part of a sample that, as a whole, favours compounds with a hit. Of some 83,000 tested, about 20% had one in any assay. The source made the active and inactive calls. Rule for the calls: active = growth percent below 10; inactive = the rest.
Can you answer with just one of these options? True (active), False (inactive)

Example entries and their recorded answers appear below.
In [3]: df
Out[3]:
                                   compound  qualitative_label
0  Cc1cc(C)c(S(=O)(=O)/N=c2/n(-c3ccccc3)nc3n2CCN3C2=NCCN2)c(C)c1              False
1         ClC1=C(Cl)C(Cl)=C(Cl)C1=Cc1ccccc1               True
2  C=C(C)[C@@H]1CC[C@]2(COCCCN)CC[C@]3(C)[C@H](CC[C@@H]4[C@@](C)(CCCNCCCN)[C@H](C(=C)C)CC[C@]43C)[C@@H]12               True
3  C#CCOc1ccc(C2=NN(CC3CC3)C3N=C(Cl)c4ncn(CC5CC5)c4N23)cc1OCC#C (stereo not given)              False

Lab note: next compound to report on.
How did this test come out for COc1ccc(C2NC(=O)C(C#N)c3c2sc2c(F)cccc32)cc1 (stereo not given) ?
False

----------
System: M14 melanoma
protocol.details: NCI-60 one-dose screen, 48 h
test.parameters: 10 µM unless noted
Compounds without any hit were thinned out: in the full panel of roughly 83,000, 20% have a hit. Activity calls are given as the source filed them. The calls were made as follows: active = growth percent below 10; inactive = the rest.
// allowed return values: Y (active), N (inactive)

Examples from the recorded data:
>>> df
                                   compound  qualitative_label
0                   CCCCCCSc1ncnc2nc[nH]c12                  N
1               CC(C)CCSc1nc(N)nc2nc[nH]c12                  N
2  CC1(C(=O)O)CCC(N)(C(=O)O)C1(C)C (stereo unspecified)                  N
3  O=C(Nc1cccc2cccnc12)c1cc(C(=O)c2ccc(Cl)cc2)n2ccc(-c3ccncc3)cc12                  N

Hey, what did the test say about CCN(CC)CCCOc1ccc2c(c1)O/C(=C\c1cccc(OC)c1)C2=O ?
N

# fetch the recorded call for CCCCC(CC)COC(=O)C[N+](C)(C)CCOC(c1ccccc1)c1ccccc1 (stereo unspecified) here
N

For Cc1nc(Cl)c2c(n1)N(C)c1ccc(Cl)cc1C(C)C2 (stereo unspecified) , which call appears in the assay record?
N

----------
System: HS 578T breast
protocol.details: NCI-60 one-dose screen, 48 h
test.parameters: 10 µM unless noted
The panel holds about 83,000 compounds, 20% with a hit somewhere; the sample as a whole holds those more often. The source made the active and inactive calls. Rule for the calls: active = growth percent below 10; inactive = the rest.
Would you mind answering with one of these outcomes? t = active, f = inactive

Study these solved cases before continuing.
molecule	qualitative.label
O=C(Nc1ccc(CN2CCOCC2)c(C(F)(F)F)c1)c1nc2ccc3[nH]ncc3c2c2c1CCCC2	f
O=C1Nc2ccccc2/C1=C/C(=O)c1ccc(N2CCCCC2)cc1	f
C=C(C)C1CCC2(C(=O)O)CCC3(C)C(CCC4C5(C)CCC(OC(=O)NCc6ccccc6)C(C)(C)C5CCC43C)C12 (stereo not drawn)	f

State the result this test recorded for COc1ccc(/C=C2\N=C(Nc3ccccc3)N(NC(=O)c3ccccn3)C2=O)cc1 .
f

Status in this test for C#C[C@]1(O)CC[C@H]2[C@@H]3CC=C4c5nc(Nc6ccccc6[N+](=O)[O-])sc5CC[C@]4(C)[C@H]3CC[C@@]21C ?
f

Assay result, entry COc1ccc2c(c1)C(C)Cc1c(ncnc1-n1cnc3ccccc31)N2C (stereo not drawn) — outcome?
f

What call does the record list for Cc1ccc(NCCN2CCCCC2)c2c(=O)c3ccccc3sc12 ?
t

Status in this test for O=C(C[n+]1ccn(CC(OCc2ccc(Cl)cc2Cl)c2ccc(Cl)cc2Cl)c1)c1ccc(F)cc1 (stereo not drawn) ?
t

Record lookup: outcome of this test for CCCCCn1c(C)cc(/C=C\c2ccc3cc(C)ccc3[n+]2C)c1C ?
t

Short answer needed: outcome of this test for C[C@H]1[C@H](C)CC[C@]2(COC(=O)CCC(=O)O)CC[C@]3(C)C(=CC[C@@H]4[C@@]5(C)CCCNC(C)(C)[C@@H]5CC[C@]43C)[C@H]12 ?
f

Look up the recorded call for Brc1ccc(-c2nnc3c4[nH]ccc4ncn23)cc1 in this test.
f

Any idea what this test logged for O=C(NCCCNC(=O)OCc1ccc2c(Br)cc(Br)c(O)c2n1)OCc1ccc2c(Br)cc(Br)c(O)c2n1 ?
t

Kindly provide the recorded test outcome for the following molecule: Cc1cccc([N+](=O)[O-])c1I
f

I would be grateful if you could indicate the recorded call for C=CCCC1(C)NC(=O)NC1=O (stereo not drawn) .
f

Please state the recorded outcome for this molecule: C[N+](C)(C)c1ncnc2[n-]cnc12
f

----------
Tested on: SK-MEL-2 melanoma
protocol.details: NCI-60 one-dose screen, 48 h
test.parameters: 10 µM unless noted
The panel holds about 83,000 compounds, 20% with a hit somewhere; the sample as a whole holds those more often. Active and inactive are the calls of the source. Rule for the calls: active = growth percent below 10; inactive = the rest.
# valid calls are TRUE = active, FALSE = inactive; nothing else

smiles.str	qualitative.label
O=C1COCCN1c1ccc(NCc2cn(Cc3ccccc3)c3ccccc23)cc1	FALSE

Status in this test for CCOc1ccccc1/C=N\Nc1ccc(S(=O)(=O)c2ccc(N/N=C/c3ccccc3OCC)cc2)cc1 ?
FALSE

Fill in: this test's call for CCc1ccc(NC(=O)N[C@@H](Cc2cc(F)cc(F)c2)C(=O)N[C@@H]2C(=O)N3C[C@H](O)C[C@H]3C(=O)N3CCOC[C@H]3C(=O)N[C@@H](C)C(=O)N3C[C@H](C)C[C@H]3C(=O)O[C@H]2C)cc1 is ___
FALSE

Called result for CCCCCn1c(C)cc(/C=C\c2ccc3cc(C)ccc3[n+]2C)c1C
TRUE

Answer briefly: the call reported for Cn1cc(-c2noc(-c3cn(C)c4ncc(F)cc34)n2)c2ccccc21 in this assay.
FALSE

Called result for O=C(Nc1ccc(C(=O)/C=C/c2ccc(N3CCOCC3)cc2)cc1)Nc1ccc([N+](=O)[O-])cc1
FALSE

Outcome logged for Cc1cccc(/C=C2\N=C(c3ccccc3)N(c3ccc(S(N)(=O)=O)cc3)C2=O)c1 in this assay:
FALSE

What was the test verdict on O=C(OCc1ccc2c(Cl)cc(Cl)c(O)c2n1)N1CCN(C(=O)c2cc3cc(F)ccc3[nH]2)CC1 ?
FALSE
